Below: a set of entries, each annotated with reported pIC50.
System: H3N2 subtype
protocol summary: Antiviral activity against Influenza A virus (A/Aichi/2/1968(H3N2)) infected in MDCK cells after 30 mins by crystal violet-based plaque assay
Type: functional, organism-based
stated conditions: 0.5 h
pIC50: −log10 of the molar value. Where a SMILES comes first, the peptide text is derived from it. The star is where a group is joined. Stearoyl = CCCCCCCCCCCCCCCCCC(=O)*

| compound | test target | operator symbol | pIC50 |
| --- | --- | --- | --- |
| CCCCCCCCCCCCCCCCCC(=O)NCC(=O)N[C@@H](Cc1c[nH]c2ccccc12)C(=O)N[C@@H](Cc1c[nH]c2ccccc12)C(=O)N[C@@H](Cc1ccc(O)cc1)C(=O)N[C@@H](CCCCN)C(=O)NCC(=O)N[C@@H](CCCNC(=N)N)C(=O)N[C@@H](C)C(=O)N[C@@H](CCCNC(=N)N)C(=O)N1CCC[C@H]1C(=O)N[C@H](C(=O)N[C@@H](CO)C(=O)N[C@@H](C)C(=O)N[C@H](C(=O)N[C@@H](C)C(N)=O)C(C)C)C(C)C (Stearoyl-GWWYKGRARPVSAVA-NH2) | H3N2 subtype | < | 5.00 |
| CCCCCCCCCCCCCCCCCC(=O)N[C@@H](CC(=O)O)C(=O)N[C@@H](Cc1ccccc1)C(=O)N[C@@H](CCCNC(=N)N)C(=O)N[C@@H](CCCNC(=N)N)C(=O)N[C@@H](CC(C)C)C(=O)N1CCC[C@H]1C(=O)NCC(=O)N[C@@H](C)C(=O)N[C@@H](Cc1ccccc1)C(=O)N[C@@H](Cc1c[nH]c2ccccc12)C(=O)N[C@@H](CCC(N)=O)C(=O)N[C@@H](CC(C)C)C(=O)N[C@@H](CCCNC(=N)N)C(=O)N[C@@H](CCC(N)=O)C(=O)N1CCC[C@H]1C(N)=O (Stearoyl-DFRRLPGAFWQLRQP-NH2) | H3N2 subtype | = | 4.72 |
| CCCCCCCCCCCCCCCCCC(=O)N[C@@H](CCCNC(=N)N)C(=O)N[C@@H](C)C(=O)N[C@H](C(=O)N[C@@H](Cc1c[nH]c2ccccc12)C(=O)N[C@@H](CCCNC(=N)N)C(=O)N[C@@H](Cc1cnc[nH]1)C(=O)N[C@@H](CO)C(=O)N[C@H](C(=O)N[C@@H](C)C(=O)N[C@H](C(=O)N1CCC[C@H]1C(=O)N[C@@H](CO)C(=O)N[C@@H](Cc1cnc[nH]1)C(=O)N[C@@H](CO)C(=O)N[C@H](C(N)=O)C(C)C)[C@@H](C)O)C(C)C)C(C)C (Stearoyl-RAVWRHSVATPSHSV-NH2) | H3N2 subtype | = | 4.17 |
| CCCCCCCCCCCCCCCCCC(=O)N[C@@H](C)C(=O)N[C@@H](CCC(=O)O)C(=O)N[C@H](C(=O)N[C@H](C(=O)N[C@@H](CCC(=O)O)C(=O)N[C@@H](CO)C(=O)N[C@@H](CS)C(=O)N[C@@H](CC(C)C)C(=O)N[C@@H](C)C(=O)N[C@@H](CCCCN)C(=O)N1CCC[C@H]1C(=O)N[C@@H](Cc1cnc[nH]1)C(=O)N[C@H](C(=O)N[C@@H](CCC(=O)O)C(=O)N[C@@H](CC(N)=O)C(N)=O)[C@H](C)O)C(C)C)[C@@H](C)O | H3N2 subtype | < | 4.00 |

Values from ChEMBL document CHEMBL1151941
